Data credit: patent US20250019439A1

- MEASUREMENT TARGET: T1, ADI-50024
- T1 construct: anti-CD3 antibody made in CHO cells, captured by anti-human Fc
- T1 sequence (VH, as listed by the source limits assumed, chain 1 of 2): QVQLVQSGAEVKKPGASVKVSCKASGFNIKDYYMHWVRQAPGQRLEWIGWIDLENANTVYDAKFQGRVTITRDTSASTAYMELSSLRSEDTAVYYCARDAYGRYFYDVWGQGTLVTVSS
- T1 sequence (VL, as listed by the source limits assumed, chain 2 of 2): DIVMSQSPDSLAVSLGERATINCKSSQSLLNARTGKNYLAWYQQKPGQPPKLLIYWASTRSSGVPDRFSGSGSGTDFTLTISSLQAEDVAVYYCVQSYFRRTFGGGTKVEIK
- PROCEDURE SUMMARY: SPR Carterra avidity, yeast anti-ID
- Protocol: Kinetic analysis was conducted at 25° C. in an HBSTE running buffer system (Carterra Cat #3630) using a Carterra LSA (Carterra USA, Salt Lake City, UT). The sample compartment was maintained at 20° C. for the duration of each experiment. For antibody capture experiments, a goat anti-human Fc antibody (Jackson ImmunoResearch) was covalently coupled to an HC30M sensor chip surface via standard amine coupling (1:1 EDC:NHS) and then blocked with ethanolamine (1.0 M, pH 8.5). […]
MEASURED METRIC: Kd (nM)

- BINDER: "ADI-34138 (antibody, V domains shown, anti-ID IgG) VH: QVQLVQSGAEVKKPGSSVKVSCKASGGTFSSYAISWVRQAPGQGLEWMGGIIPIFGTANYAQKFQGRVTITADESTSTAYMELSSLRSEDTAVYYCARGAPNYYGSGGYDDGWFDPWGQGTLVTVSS VL: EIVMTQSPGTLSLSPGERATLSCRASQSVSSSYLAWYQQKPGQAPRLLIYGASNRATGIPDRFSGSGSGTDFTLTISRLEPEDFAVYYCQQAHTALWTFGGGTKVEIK"
  OBSERVED VALUE: 19
- BINDER: "ADI-34137 (antibody, V domains shown, anti-ID IgG) VH: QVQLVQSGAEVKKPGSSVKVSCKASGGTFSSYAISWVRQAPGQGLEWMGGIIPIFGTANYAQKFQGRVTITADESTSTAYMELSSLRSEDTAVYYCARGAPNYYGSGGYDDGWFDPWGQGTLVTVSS VL: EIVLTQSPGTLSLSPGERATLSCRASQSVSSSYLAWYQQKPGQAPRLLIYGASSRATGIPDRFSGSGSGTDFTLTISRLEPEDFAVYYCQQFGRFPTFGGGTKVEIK"
  OBSERVED VALUE: 0.39
- BINDER: "ADI-30242 (antibody, V domains shown, anti-ID IgG) VH: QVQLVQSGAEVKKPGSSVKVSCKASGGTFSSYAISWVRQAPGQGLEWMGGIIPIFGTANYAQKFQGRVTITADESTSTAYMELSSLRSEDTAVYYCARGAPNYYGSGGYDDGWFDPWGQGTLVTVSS VL: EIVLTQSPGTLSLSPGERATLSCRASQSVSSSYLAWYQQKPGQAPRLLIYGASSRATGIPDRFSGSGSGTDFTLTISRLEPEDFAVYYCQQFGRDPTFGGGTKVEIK"
  OBSERVED VALUE: 11
- BINDER: "ADI-34132 (antibody, V domains shown, anti-ID IgG) VH: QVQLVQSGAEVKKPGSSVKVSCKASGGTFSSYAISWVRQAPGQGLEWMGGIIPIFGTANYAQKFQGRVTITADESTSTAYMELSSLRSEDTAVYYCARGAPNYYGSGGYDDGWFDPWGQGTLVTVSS VL: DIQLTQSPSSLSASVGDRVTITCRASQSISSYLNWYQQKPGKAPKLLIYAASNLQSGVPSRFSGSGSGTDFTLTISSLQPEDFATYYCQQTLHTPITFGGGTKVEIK"
  OBSERVED VALUE: 0.35
